test.system: T1, recombinant human CD3 epsilon/delta heterodimer (human, UniProt P07766 23-126; P04234 22-105)
T1 construct: Recombinant heterodimer used as analyte in Octet; also called hCD3 E/D; human CD3E/D
T1 sequence (P07766 23-126, stated change not applied, chain 1 of 2): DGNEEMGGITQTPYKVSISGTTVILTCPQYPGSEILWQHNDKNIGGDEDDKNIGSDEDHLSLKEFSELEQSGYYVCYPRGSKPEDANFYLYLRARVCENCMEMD
T1 sequence (P04234 22-105, stated change not applied, chain 2 of 2): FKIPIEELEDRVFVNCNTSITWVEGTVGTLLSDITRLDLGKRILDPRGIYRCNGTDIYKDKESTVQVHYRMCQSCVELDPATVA
experiment.summary: BLI (Octet), mAb 5 ug/mL on FAB2G sensor, hCD3 E/D 200-50 nM
quantity.name: Response

# binder, quantity.name, result
measured = [
    ("ABL-CD3-64 (antibody, V domains shown, mAb purified from hybridoma; chimeric AlivaMab IgG (human VH, CH1 and upper hinge; mouse middle hinge, CH2, CH3; human light chain)) VH: EVQVAESGGGLVKPGGSLRLSCAASGFTFSRYSMNWVRQAPGKGLEWVSSISSSGSYTYYADSVKGRFTISRDNAKNSLYLQMNSLRAEDTAVYYCVRERGKGAGMDVWGQGTTVTVSS VL: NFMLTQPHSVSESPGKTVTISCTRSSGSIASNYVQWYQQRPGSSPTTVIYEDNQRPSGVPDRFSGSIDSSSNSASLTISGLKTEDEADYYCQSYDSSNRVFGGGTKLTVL", "Response", 0.68),
    ("ABL-CD3-71 (antibody, V domains shown, mAb purified from hybridoma; chimeric AlivaMab IgG (human VH, CH1 and upper hinge; mouse middle hinge, CH2, CH3; human light chain)) VH: QVQLQESGPGLVKPSETLSLTCTVSGGSINSYYWSWIRQPAGKGLEWIGRIYTSGSTNYNPSLKSRVTMSVDTSKKQFSLKLSSVTAADTAVYYCARERISRLYFDYWGQGILVTVSS VL: NFMLTQPHSVSESPGKTVTISCTRSSGSIASNYVQWYQQRPGSSPTTVIYEDNQRPSGVPDRFSGSIDSSSNSASLTISGLKTEDEADYYCQSYDRSNRVFGGGTKLTVL", "Response", 0.48),
]

Could you now look at the following binder, please?
q: I would be grateful if you could share the reported Response for ABL-CD3-77 (antibody, V domains shown, mAb purified from hybridoma; chimeric AlivaMab IgG (human VH, CH1 and upper hinge; mouse middle hinge, CH2, CH3; human light chain)) VH: EVQLVESGGGLVKPGGSLRLSCAASGFTFSSYSMNWVRQAPGKGLEWVSSISSSSSYIYYADSVKGRFTISRDNAKNSLYLQMNSLRAEDTAVYYCARDGELGIGTYFDYWGQGTLVTVSS VL: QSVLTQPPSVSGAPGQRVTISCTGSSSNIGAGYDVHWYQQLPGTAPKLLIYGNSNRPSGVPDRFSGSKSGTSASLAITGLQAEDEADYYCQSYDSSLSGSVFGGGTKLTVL .
a: 0.01
